Please provide measured CLH for the entries that follow.
details: human, microsomes, 0.5 h, 0.5 µM
Answer with a number only, understood to be in mL/min/kg.

Q. Name the recorded CLH for N#Cc1ccc(-c2ccc3c(ccc(=O)n3CC(=O)N3CCCCC3)c2)cc1 .
A. 33

Q. Looking for the measured CLH of N#Cc1ccc(Oc2ccc3nc(OCC(=O)NCC(N)=O)ccc3c2)cc1 , can you help?
A. 33

Q. If you can, please state the reported CLH value of N#Cc1ccc(Oc2ccc3nc(OCC(=O)N4CCOCC4)ccc3c2)cc1 .
A. 50

Q. Query: CLH; subject: CN1CCN(C(=O)COc2ccc3cc(Oc4ccc(C(F)(F)F)cn4)ccc3n2)CC1
A. 100

Q. What does the record list as CLH for O=C1CN(C(=O)COc2ccc3cc(Oc4ccccn4)ccc3n2)CCN1 ?
A. 65

Q. Consider the molecule O=C(COc1ccc2cc(Oc3ccc(C(F)(F)F)cn3)ccc2n1)N1CCCCC1 and give its measured CLH.
A. 233

Q. Requested field: CLH. Item: O=C(COc1ccc2cc(Oc3ccccn3)ccc2n1)N1CCNCC1
A. 183

Q. Reported CLH, molecule N#Cc1ccc(Oc2ccc3c(ccc(=O)n3CCN3CCCCC3)c2)cc1 : ____
A. 150

Q. Query (molecule): N#Cc1ccc(Oc2ccc3nc(OCCN4CCCCC4)ccc3c2)cc1 ; field requested: CLH
A. 50

Q. CLH for NC(=O)CNC(=O)COc1ccc2cc(Oc3ccccn3)ccc2n1 ?
A. 33

Q. Name the reported CLH value associated with the molecule O=C(COc1ccc2cc(Oc3ccccn3)ccc2n1)N1CCCCC1
A. 100

Q. Fill in the blank: the reported CLH of N#Cc1ccc(-c2ccc3c(ccc(=O)n3CCN3CCCCC3)c2)cc1 is ____.
A. 33

* * *

Values of IC50 reported for Voltage-gated inwardly rectifying potassium channel KCNH2 (Homo sapiens) appear below.

Q. IC50 lookup needed for CS(=O)(=O)CCNC(=O)c1ccc2cc(Oc3ccc(C(F)(F)F)cn3)ccc2n1 , thanks.
A. 30 µM

Q. Could you share which IC50 value was measured for O=C(c1ccc2cc(Oc3ccc(F)cn3)ccc2n1)N1CCNCC1 ?
A. 17 µM

Q. Reported IC50, compound N#Cc1ccc(COc2ccc3nc(C(=O)N4CCNCC4)ccc3c2)cc1 : ____
A. 5.61 µM

Q. Give the measured IC50 of N#Cc1ccc(Oc2ccc3c(ccc(=O)n3CCN3CCCCC3)c2)cc1 .
A. < 1 µM

Q. Please give the measured IC50 for this compound: O=C(c1ccc2cc(Oc3cc(C(F)(F)F)ccn3)ccc2n1)N1CCNCC1
A. 7.3 µM

Q. IC50 for CC(=O)c1ccc(Oc2ccc3nc(C(=O)N4CCNCC4)ccc3c2)cc1 ?
A. 23.6 µM

Q. Name the recorded IC50 for O=C(COc1ccc2cc(Oc3ccccn3)ccc2n1)N1CCCCC1 .
A. 30 µM

Q. Return reported IC50; argument: N#Cc1ccc(Oc2ccc3nc(OCC(=O)NCC(N)=O)ccc3c2)cc1
A. > 30 µM

Q. May I ask what IC50 has been recorded for O=C(c1ccc2cc(Oc3ccc(C(F)F)cn3)ccc2n1)N1CCNCC1 ?
A. 29.5 µM

Q. Could you tell me which IC50 is on file for N#Cc1ccc(Oc2ccc3nc(OCCN4CCCCC4)ccc3c2)cc1 ?
A. < 1 µM

Q. For the compound shown here, CN1CCN(C(=O)COc2ccc3cc(Oc4ccccn4)ccc3n2)CC1 , give the reported IC50.
A. 30 µM
